- test target: T1, recombinant human VEGF165 (human, UniProt P15692-4 27-191)
- T1 construct: also called rhVEGF165
- T1 sequence (P15692 other isoform, or with tags, fused parts or gaps limits assumed): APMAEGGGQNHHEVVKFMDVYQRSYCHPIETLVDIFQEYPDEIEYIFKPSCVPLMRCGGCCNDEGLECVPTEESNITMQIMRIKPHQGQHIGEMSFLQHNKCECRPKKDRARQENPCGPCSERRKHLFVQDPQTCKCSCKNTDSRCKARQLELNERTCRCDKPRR
- measurement notes: competition ELISA: VEGF165 binding to coated VEGFR2/Fc; normalized value
pIC50: −log10 of the molar value. Bridges are numbered along the chain shown (N, C = ends).
Each entry gets NOT MET if its pIC50 stays under 7, and MET if its pIC50 is 7 or above.

Ac-VEPNCDIHVMWVWVCFERLFREA-NH2 (disulfide 5-15 (inferred)) [[VEGF-Peptide] SEQ ID NO:36] = NOT MET
Ac-VEPNCDIHVMWVWECFERLYGGW-NH2 (disulfide 5-15 (inferred)) [[VEGF-Peptide] SEQ ID NO:35] = NOT MET
Ac-VEPNCDIHVMWVWVCFERLFKEA-NH2 (disulfide 5-15 (inferred)) [[VEGF-Peptide] SEQ ID NO:37] = MET
Ac-VEPNCDIHVMWEWECFERL-NH2 (disulfide 5-15 (inferred)) [[VEGF-Peptide] SEQ ID NO:34] = NOT MET

The measured values listed here are drawn from patent US20120321591A1.
